meta.source: ChEMBL document CHEMBL4270570

SYSTEM NAME: UniProtKB Q7ZJM1
Sequence (Q7ZJM1 whole entry): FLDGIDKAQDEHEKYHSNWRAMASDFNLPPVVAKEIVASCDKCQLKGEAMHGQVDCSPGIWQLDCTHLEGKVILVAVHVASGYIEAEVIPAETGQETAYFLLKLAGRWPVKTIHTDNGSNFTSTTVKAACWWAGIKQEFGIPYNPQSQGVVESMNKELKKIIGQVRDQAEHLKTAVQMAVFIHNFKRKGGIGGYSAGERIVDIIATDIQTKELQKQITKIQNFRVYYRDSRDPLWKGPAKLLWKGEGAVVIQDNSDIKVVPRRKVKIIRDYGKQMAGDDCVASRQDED
The following compounds are listed with their measured IC50 values.
PARAMETER MEASURED: IC50

O=c1cc(Sc2cccc(-c3ccc(C(F)(F)F)cc3)c2)[nH]c(=O)n1O : > 140 nM
O=c1cc(Sc2cccc(-c3ccc(F)cc3)c2)[nH]c(=O)n1O : > 140 nM
COc1cccc(-c2ccc(Sc3cc(=O)n(O)c(=O)[nH]3)cc2)c1 : > 1000 nM
O=c1cc(Sc2ccccc2-c2ccc(C(F)(F)F)cc2)[nH]c(=O)n1O : > 100000 nM
COc1cc(OC)cc(-c2ccc(Sc3cc(=O)n(O)c(=O)[nH]3)cc2)c1 : > 100000 nM
COc1ccc(-c2ccc(Sc3cc(=O)n(O)c(=O)[nH]3)cc2)cc1 : > 100000 nM
O=c1cc(Sc2cccc(-c3ccc(Cl)cc3)c2)[nH]c(=O)n1O : > 1000 nM
